Listed next: entries and their corresponding TGI.
Test system: DU-145 prostate
Assay: NCI tumour cell line growth inhibition, 48 h

{"columns": ["MOLECULE", "TGI"],
 "data": [
  ["Cc1cccc(-c2cc(=O)c3c(C)ccnc3[nH]2)c1", "> 100 µM"],
  ["CCn1c(-c2cc3ccccc3cc2OC(=O)c2ccccc2)n[nH]c1=S", "> 50 µM"],
  ["O=c1[nH]nc(Cc2ccc([N+](=O)[O-])cc2)[nH]1", "> 100 µM"]
]}

response.value for CC[N+]1(C)CCC(O)(/C=C/c2ccc(Cl)c(Cl)c2)C(C(=O)/C=C/c2ccc(Cl)c(Cl)c2)C1 (stereo unspecified) (field: TGI) = 6.87 µM

Data point: `COc1ccc(C2=C(N)c3ccccc3C2=O)cc1` ; TGI = > 100 µM

Quick note, TGI for `NC(=S)NS(=O)(=O)c1ccc(Cl)cc1Cl` landed at > 100 µM

====

Documented TGI across a set of compounds
Tested on: NCI-H226 lung
Assay: NCI tumour cell line growth inhibition, 48 h
Could you give me the number in µM? Just the number is fine.

Solved cases (2 shown):
{"columns": ["STRUCTURE SMILES", "TGI [µM]"],
 "data": [
  ["Cc1cc(C(=O)NCCN(C)C)c2nc3ccccc3nc2c1", 14.3],
  ["CCOc1cc(C=Nc2ccc(Oc3ccc(Cl)cc3)c(Cl)c2)ccc1O", 90.2]
]}

Data point: `Oc1cc(Br)cc2cc(Br)cnc12` ; TGI = 86.5

response.value for `CCC[CH2][Ge]([CH2]CCC)([CH2]CCC)[O]C(=O)CCl` (field: TGI) = 31.5

====

Item-by-item account of TGI
Tested on: A549 NSCLC
Experiment: NCI tumour cell line growth inhibition, 48 h

Use the examples below as a reference point.
{"columns": ["MOLECULE", "ASSAY SYSTEM", "TGI"],
 "data": [
  ["COc1cc(C(=O)c2c(-c3ccccc3)oc3ccccc23)cc(OC)c1O", "A549 NSCLC", "> 100 µM"],
  ["COc1cc([N+](=O)[O-])c2ncccc2c1O", "A549 NSCLC", "1.74 µM"],
  ["Cc1ccc(N=Nc2cc(=O)[nH]c(=O)[nH]2)cc1C", "A549 NSCLC", "34.7 µM"],
  ["NC(=NC1C2CC3CC(C2)CC1C3)Nc1ccc(I)cc1 (stereo not drawn)", "A549 NSCLC", "14.2 µM"]
]}

Please turn your attention to the following entry.
Entry COc1cccc2c1C(=O)c1c(O)c3c(c(O)c1C2=O)C[C@](O)(C(=O)CO)CC3OC1CC(N)C(OC2CCCCO2)C(C)O1 (stereo partly drawn) , TGI reported as 13.3 µM

====

System: HOP-92 NSCLC
Test: NCI tumour cell line growth inhibition, 48 h
Could you label it 1 (yes) if measured TGI is 30 µM or higher, and 0 (no) otherwise?

Illustrative cases are given below, each with its answer.
{"columns": ["MOLECULE", "ASSAY SYSTEM", "ASSIGNED LABEL"],
 "data": [
  ["C/C(=N\\N=C(N)N)c1sc(-c2nc(C)c(/C(C)=N/N=C(N)N)s2)nc1C", "HOP-92 NSCLC", "1 (yes)"],
  ["CCCS(=O)OC1C(C2COC(C)(C)O2)OC2OC(C)(C)OC21 (centres undefined)", "HOP-92 NSCLC", "0 (no)"],
  ["CCOc1cc(C=Nc2ccc(Oc3ccc(Cl)cc3)c(Cl)c2)ccc1O", "HOP-92 NSCLC", "1 (yes)"]
]}

TGI >= 30 µM for `COc1ccc(-c2nc(N)nc(-c3cc(C)ccc3O)c2Cl)cc1` ?
1 (yes)

Please indicate if the recorded TGI for `NC(=S)NS(=O)(=O)c1ccc(Cl)cc1Cl` meets or exceeds 30 µM.
1 (yes)

Could you please find out whether `O=c1c2cc(Cl)ccc2n2nnc3ccc(NCCNCCO)c1c32` has TGI that meets 30 µM or exceeds it?
0 (no)

Is reported TGI greater than or equal to 30 µM here: `Cc1cc(C#Cc2ccccc2)ccc1-n1c(/C=C/c2ccc(O)cc2)nc2ccccc2c1=O`
0 (no)

Could you tell me if the measured TGI of `Nc1ccccc1C#Cc1ccccc1C#CCCCCO` reaches 30 µM or more?
1 (yes)

Confirm if TGI reported for the molecule `COc1cc(/C=C2\N=C(c3ccccc3)N(c3ccc(C(=O)c4ccccc4)cc3N3C(=O)/C(=C/c4cc(OC)c(OC)c(OC)c4)N=C3c3ccccc3)C2=O)cc(OC)c1OC` is 30 µM or above.
1 (yes)

Confirm if TGI reported for the molecule `CCn1c2ccccc2c2cc(NC(=O)c3c(C)[nH]c(=O)[nH]c3=S)ccc21` is 30 µM or above.
1 (yes)

// inclusive: TGI at least 30 µM? input: `CCOc1ccc(N2C(N)=NC(N)=NC2(C)C)cc1`
1 (yes)

Determine whether measured TGI meets or exceeds 30 µM for `CC(C)c1cc2c(O)c(c1)Cc1cc(C(C)C)cc(c1O)Cc1cc(C(C)C)cc(c1O)Cc1cc(C(C)C)cc(c1O)Cc1cc(C(C)C)cc(c1O)Cc1cc(C(C)C)cc(c1O)C2`
1 (yes)

hey, is TGI for this one >= 30 µM? `ClCc1ccc(Cn2cnc3ncnc(Cl)c32)cc1`
0 (no)

Confirm if TGI reported for the molecule COc1ccc(C2CC(C)=Nc3c([nH]c(=S)[nH]c3=O)N2)cc1 (centres undefined) is 30 µM or above.
1 (yes)

Determine whether this molecule has TGI no lower than 30 µM: `CN(C)CCCN1C(=O)N(CCCN(C)C)c2c3cc(O)ccc3nc3c([N+](=O)[O-])ccc1c23`
1 (yes)
